Each item that follows carries a reported bioavailability.
experiment: Oral bioavailability in dog; type: ADME, organism-based, Canis lupus familiaris; conditions: in vivo
Write the number in % without appending the unit.

The examples below pair each entry with its known result.
In [3]: df
Out[3]:
                                   compound  numeric_value
0  O=C(Nc1ncc(Cc2ccccc2Cl)s1)C(c1ccccc1)c1ccccc1             50
1  Cc1ccc(NC(=O)C2(c3ccc4c(c3)OC(F)(F)O4)CC2)nc1-c1cccc(C(=O)O)c1             50

In the following, a different molecule is considered.
Ask: State, in one line, measured bioavailability of `CC(C)(CO)c1cc2cc(NC(=O)C3(c4ccc5c(c4)OC(F)(F)O5)CC3)c(F)cc2n1C[C@@H](O)CO`
Result: 50

###

Target: UniProtKB O75469
Sequence (O75469 whole entry): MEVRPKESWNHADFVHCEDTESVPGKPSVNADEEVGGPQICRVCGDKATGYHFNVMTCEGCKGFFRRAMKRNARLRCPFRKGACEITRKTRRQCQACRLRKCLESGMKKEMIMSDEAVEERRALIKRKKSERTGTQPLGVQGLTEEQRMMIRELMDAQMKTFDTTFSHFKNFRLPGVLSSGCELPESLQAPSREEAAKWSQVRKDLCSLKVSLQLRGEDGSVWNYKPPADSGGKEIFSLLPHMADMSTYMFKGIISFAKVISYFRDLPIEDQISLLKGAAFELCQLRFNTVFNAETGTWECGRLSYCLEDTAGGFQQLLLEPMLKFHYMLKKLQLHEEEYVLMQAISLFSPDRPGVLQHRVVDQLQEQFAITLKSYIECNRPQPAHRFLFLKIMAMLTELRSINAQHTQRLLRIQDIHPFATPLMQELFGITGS
Test: Activation of PXR (unknown origin) at 10 uM relative to rifampicin
Lab note: compare Activity against 10%. Equal or greater, write yes. Smaller, write no.

Use these answered entries as a reference point.
>>> df
                                   compound  classification
0  C[C@@H]1CN(c2nc(-n3ccc(OCC4(C(F)(F)F)CC4)n3)ccc2C(=O)NS(=O)(=O)c2ccccc2)C(C)(C)C1             yes
1  C[C@@H]1CN(c2nc(-n3ccc(OCCC4(C(F)(F)F)CC4)n3)ccc2C(=O)NS(=O)(=O)c2ccccc2)C(C)(C)C1              no

Ask: Quick check, Activity >= 10%? CC(O)CNC(=O)c1ncc(S(=O)(=O)N2CCC(OC(F)(F)F)CC2)cc1N (stereo unspecified)
Result: yes

Ask: Quick check, Activity >= 10%? `C[C@@H]1CN(c2nc(-n3ccc(OCC(C)(C)C)n3)ccc2C(=O)NS(=O)(=O)c2cccnc2N)C(C)(C)C1`
Result: no

Ask: Quick check, Activity >= 10%? `Nc1cc(S(=O)(=O)c2ccccc2OC(F)(F)F)cnc1C(=O)NC[C@@H](O)C(F)(F)F`
Result: yes

###

assay: Mean residence time in rat at 0.5 mg/kg, iv; assay type: ADME, organism-based; settings: in vivo
Assay Metric: MRT (h)
Write the number in h without appending the unit.

Ask: State, in one line, measured MRT of `Nc1cc(C(F)(F)F)c(Br)nc1C(=O)NC[C@@H](O)C(F)(F)F`
Result: 1
